- Test system: A549
- assay_comment: Cell viability (CellTiter-Blue, 72 h), A549 lung cancer cells
- Assay type: cell-based
- experimental_context: Homo sapiens, A549, read-out: Dm (median effect dose)
Lab note: anything with IC50 below 4 µM is marked true; values at 4 µM or higher are marked false.

INSERT INTO assay_data (compound, test_system, class_label) VALUES
  ('CCCc1cc(O)c2c(c1)OC(C)(C)[C@@H]1CCC(C)=C[C@@H]21 [THCV, Tetrahydrocannabivarin]', 'A549', 'false'),
  ('C=C(C)[C@@H]1CCC(C)=C[C@H]1c1c(O)cc(CCCCC)c(C(=O)O)c1O', 'A549', 'false'),
  ('CCCCCc1cc(O)c(C/C=C(\C)CCC=C(C)C)c(O)c1', 'A549', 'false'),
  ('CCCCCc1cc(O)c(C/C=C(\C)CCC=C(C)C)c(O)c1C(=O)O', 'A549', 'false'),
  ('C=C(C)[C@@H]1CCC(C)=C[C@H]1c1c(O)cc(CCCCC)cc1O', 'A549', 'true');

---

- Tested on: WM115
- assay_comment: Cell viability (CellTiter-Blue, 72 h), WM115 melanoma cells
- Format: cell-based
- experimental_context: Homo sapiens, WM-115; WM115, 1% FBS, 72 h; read-out: Cell line IC50 value
property_name: IC50 (nM)

INSERT INTO assay_data (compound, property_name, test_value) VALUES
  ('CCCCCc1cc(O)c(C/C=C(\C)CCC=C(C)C)c(O)c1C(=O)O [CBGA, Cannabigerolic acid]', 'IC50', 1500),
  ('C=C(C)[C@@H]1CCC(C)=C[C@H]1c1c(O)cc(CCCCC)c(C(=O)O)c1O [CBDA, Cannabidiolic acid]', 'IC50', 2100),
  ('CCCCCc1cc(O)c2c(c1)OC(C)(C)[C@@H]1CCC(C)=C[C@@H]21 [THC, Tetrahydrocannabinol, reference compound]', 'IC50', 2900),
  ('C=C(C)[C@@H]1CCC(C)=C[C@H]1c1c(O)cc(CCCCC)cc1O [CBD, Cannabidiol]', 'IC50', 2400),
  ('CCCc1cc(O)c2c(c1)OC(C)(C)[C@@H]1CCC(C)=C[C@@H]21 [THCV, Tetrahydrocannabivarin]', 'IC50', 6500),
  ('CCCCCc1cc(O)c(C/C=C(\C)CCC=C(C)C)c(O)c1 [CBG, Cannabigerol]', 'IC50', 3100);

---

- System: SKBR3
- assay_comment: Cell viability (CellTiter-Blue, 72 h), SKBR3 breast cancer cells
- Format: cell-based
- experimental_context: Homo sapiens, SK-BR-3, 72 h, read-out: IC50 values, SKBR3, 10% FBS, 72 h
property_name: IC50 (µM)

INSERT INTO measurements (compound, bound_operator, test_value) VALUES
  ('CC(=O)O[C@@]12CO[C@@H]1C[C@H](O)[C@@]1(C)C(=O)[C@H](O)C3=C(C)[C@@H](OC(=O)[C@H](O)[C@@H](NC(=O)OC(C)(C)C)c4ccccc4)C[C@@](O)([C@@H](OC(=O)c4ccccc4)[C@H]21)C3(C)C [Taxotere, Docetaxel, reference compound]', '<', 0.001),
  ('C=C(C)[C@@H]1CCC(C)=C[C@H]1c1c(O)cc(CCCCC)cc1O', '=', 23),
  ('CCCCCc1cc(O)c(C/C=C(\C)CCC=C(C)C)c(O)c1C(=O)O', '>', 100),
  ('CCCCCc1cc(O)c(C/C=C(\C)CCC=C(C)C)c(O)c1', '=', 33),
  ('CCCc1cc(O)c2c(c1)OC(C)(C)[C@@H]1CCC(C)=C[C@@H]21 [THCV, Tetrahydrocannabivarin]', '=', 30);

---

List of IC50 values.
- System: SKOV3
- assay_comment: Cell viability (CellTiter-Blue, 72 h), SKOV3 ovarian cancer cells
- Format: cell-based
- experimental_context: Homo sapiens, SK-OV-3; SKOV3, 1% FBS, 72 h; read-out: Cell line IC50 value
property_name: IC50 (µM)

INSERT INTO assay_data (compound, test_system, test_value) VALUES
  ('CCCCCc1cc(O)c(C/C=C(\C)CCC=C(C)C)c(O)c1 [CBG, Cannabigerol]', 'SKOV3', 5.5),
  ('C=C(C)[C@@H]1CCC(C)=C[C@H]1c1c(O)cc(CCCCC)cc1O [CBD, Cannabidiol]', 'SKOV3', 3.1),
  ('C=C(C)[C@@H]1CCC(C)=C[C@H]1c1c(O)cc(CCCCC)c(C(=O)O)c1O [CBDA, Cannabidiolic acid]', 'SKOV3', 1.3),
  ('CCCCCc1cc(O)c(C/C=C(\C)CCC=C(C)C)c(O)c1C(=O)O [CBGA, Cannabigerolic acid]', 'SKOV3', 7.9),
  ('CCCCCc1cc(O)c2c(c1)OC(C)(C)[C@@H]1CCC(C)=C[C@@H]21 [THC, Tetrahydrocannabinol, reference compound]', 'SKOV3', 5.3),
  ('CCCc1cc(O)c2c(c1)OC(C)(C)[C@@H]1CCC(C)=C[C@@H]21 [THCV, Tetrahydrocannabivarin]', 'SKOV3', 6.5);

---

Items are presented alongside their recorded pIC50.
- Test system: ACHN
- assay_comment: Cell viability (CellTiter-Blue, 72 h), ACHN renal cancer cells
- Format: cell-based
- experimental_context: Homo sapiens, read-out: Dm (potency, median effect)
pIC50: −log10 of the molar value.
property_name: pIC50

INSERT INTO measurements (molecule, test_value) VALUES
  ('CCCc1cc(O)c2c(c1)OC(C)(C)[C@@H]1CCC(C)=C[C@@H]21 [THCV, Tetrahydrocannabivarin]', 5.17),
  ('C=C(C)[C@@H]1CCC(C)=C[C@H]1c1c(O)cc(CCCCC)c(C(=O)O)c1O', 5.07),
  ('C=C(C)[C@@H]1CCC(C)=C[C@H]1c1c(O)cc(CCCCC)cc1O', 5.51),
  ('CCCCCc1cc(O)c2c(c1)OC(C)(C)[C@@H]1CCC(C)=C[C@@H]21 [THC, Tetrahydrocannabinol, reference compound]', 5.36),
  ('CCCCCc1cc(O)c(C/C=C(\C)CCC=C(C)C)c(O)c1C(=O)O', 4.92),
  ('CCCCCc1cc(O)c(C/C=C(\C)CCC=C(C)C)c(O)c1', 5.53);

---

- System: BT474
- assay_comment: Cell viability (CellTiter-Blue, 72 h), phytocannabinoids alone and in combination, BT474 breast cancer cells
- Type: cell-based
- experimental_context: Homo sapiens, BT-474, 72 h, BT474, 1% FBS, 72 h; read-out: IC50 values
pIC50: −log10 of the molar value.
Here, each record is paired with measured pIC50 data.
property_name: pIC50

INSERT INTO measurements (compound_smiles, property_name, test_value) VALUES
  ('C=C(C)[C@@H]1CCC(C)=C[C@H]1c1c(O)cc(CCCCC)cc1O', 'pIC50', 5.10),
  ('CCCCCc1cc(O)c(C/C=C(\C)CCC=C(C)C)c(O)c1', 'pIC50', 5.10),
  ('C=C(C)[C@@H]1CCC(C)=C[C@H]1c1c(O)cc(CCCCC)c(C(=O)O)c1O', 'pIC50', 4.66);

---

- System: MDA-MB-231
- assay_comment: Cell viability (CellTiter-Blue, 72 h), MDA-MB-231 breast cancer cells
- Type: cell-based
- experimental_context: Homo sapiens, MDA-MB-231, 72 h, read-out: IC50 values, MDA-MB-231, 10% FBS, 72 h
pIC50: −log10 of the molar value.
Examples of compounds with documented pIC50 follow.
property_name: pIC50

INSERT INTO results (compound, test_system, property_name, bound_operator, test_value) VALUES
  ('C=C(C)[C@@H]1CCC(C)=C[C@H]1c1c(O)cc(CCCCC)cc1O', 'MDA-MB-231', 'pIC50', '=', 4.57),
  ('CCCc1cc(O)c2c(c1)OC(C)(C)[C@@H]1CCC(C)=C[C@@H]21 [THCV, Tetrahydrocannabivarin]', 'MDA-MB-231', 'pIC50', '=', 4.44),
  ('CCCCCc1cc(O)c(C/C=C(\C)CCC=C(C)C)c(O)c1', 'MDA-MB-231', 'pIC50', '=', 4.54),
  ('CC(=O)O[C@@]12CO[C@@H]1C[C@H](O)[C@@]1(C)C(=O)[C@H](O)C3=C(C)[C@@H](OC(=O)[C@H](O)[C@@H](NC(=O)OC(C)(C)C)c4ccccc4)C[C@@](O)([C@@H](OC(=O)c4ccccc4)[C@H]21)C3(C)C [Taxotere, Docetaxel, reference compound]', 'MDA-MB-231', 'pIC50', '>', 9.00);

---

Recorded IC50, one value per entry.
- Test system: BT474
- assay_comment: Cell viability (CellTiter-Blue, 72 h), phytocannabinoids alone and in combination, BT474 breast cancer cells
- Format: cell-based
- experimental_context: Homo sapiens, BT-474, 72 h, BT474, 1% FBS, 72 h; read-out: IC50 values
property_name: IC50 (µM)

INSERT INTO measurements (compound, bound_operator, test_value) VALUES
  ('CCCc1cc(O)c2c(c1)OC(C)(C)[C@@H]1CCC(C)=C[C@@H]21 [THCV, Tetrahydrocannabivarin]', '=', 13.3),
  ('CC(=O)O[C@@]12CO[C@@H]1C[C@H](O)[C@@]1(C)C(=O)[C@H](O)C3=C(C)[C@@H](OC(=O)[C@H](O)[C@@H](NC(=O)OC(C)(C)C)c4ccccc4)C[C@@](O)([C@@H](OC(=O)c4ccccc4)[C@H]21)C3(C)C [Taxotere, Docetaxel, reference compound]', '<', 0.001),
  ('CCCCCc1cc(O)c(C/C=C(\C)CCC=C(C)C)c(O)c1C(=O)O', '=', 24.8);
